Taken from ChEMBL document CHEMBL1201862.

Molecular target: Luciferin 4-monooxygenase (Photinus pyralis)
Sequence (P08659 whole entry): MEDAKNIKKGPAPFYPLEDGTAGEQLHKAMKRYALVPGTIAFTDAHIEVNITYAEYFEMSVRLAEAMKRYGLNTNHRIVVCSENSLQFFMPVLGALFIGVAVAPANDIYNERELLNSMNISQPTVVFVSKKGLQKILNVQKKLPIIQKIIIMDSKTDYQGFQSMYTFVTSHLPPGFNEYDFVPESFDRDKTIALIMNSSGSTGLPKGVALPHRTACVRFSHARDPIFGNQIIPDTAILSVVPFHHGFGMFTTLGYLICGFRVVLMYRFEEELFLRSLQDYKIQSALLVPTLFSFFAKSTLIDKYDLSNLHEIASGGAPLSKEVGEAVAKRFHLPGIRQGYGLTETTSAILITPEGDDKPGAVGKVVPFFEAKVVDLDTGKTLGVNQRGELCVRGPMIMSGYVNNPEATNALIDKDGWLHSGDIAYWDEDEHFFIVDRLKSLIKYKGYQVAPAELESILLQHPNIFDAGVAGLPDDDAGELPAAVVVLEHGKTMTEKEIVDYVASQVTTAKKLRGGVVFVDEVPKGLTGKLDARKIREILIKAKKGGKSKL
Assay: firefly luciferase enzyme inhibitors, dose response, biochemical, luminescence (AID 1891)
Activity calls are given as the source filed them. Rule as the data show it: actives have a measured EC50 and inactives only a lower limit.
Please respond with reported EC50 for every item in the list.

Recorded EC50, per entry:
Molecule	EC50
CC(Sc1ccccc1)C(=O)Nc1ccccc1C(=O)N1CCOCC1 (stereo unspecified)	> 112 µM (not active)
COc1cc2c(cc1OC)-c1cc(Nc3ccc(C)cc3)nc(=O)n1CC2	> 112 µM (not active)
CC(=O)Nc1cccc(NC(=O)C(=O)Nc2ccc3c(c2)N(C(=O)C2CC2)CCC3)c1	31 µM (active)

Go through the items and report each one's EC50.
1. Cc1ccc(-c2cc3c(N=O)c4ccccc4c-3[nH]n2)cc1
2. CCNS(=O)(=O)c1ccc(NC(=O)c2cccnc2)cc1
3. O=C(Nc1nc2cc3c(cc2s1)OCCO3)C1=COCCO1
4. COc1ccc(/C=N/Nc2snc(SC)c2C#N)cc1OC

1. 0.207 µM (active)
2. > 112 µM (not active)
3. 1.58 µM (active)
4. 46.8 µM (active)
